- studyTarget: Bub1 (Homo sapiens, UniProt O43683)
- Construct: catalytic domain of human Bub1 (amino acids 704-1085); His6 (N); made in house; host or cells: Hi5 insect cells
- Sequence (O43683 704-1085): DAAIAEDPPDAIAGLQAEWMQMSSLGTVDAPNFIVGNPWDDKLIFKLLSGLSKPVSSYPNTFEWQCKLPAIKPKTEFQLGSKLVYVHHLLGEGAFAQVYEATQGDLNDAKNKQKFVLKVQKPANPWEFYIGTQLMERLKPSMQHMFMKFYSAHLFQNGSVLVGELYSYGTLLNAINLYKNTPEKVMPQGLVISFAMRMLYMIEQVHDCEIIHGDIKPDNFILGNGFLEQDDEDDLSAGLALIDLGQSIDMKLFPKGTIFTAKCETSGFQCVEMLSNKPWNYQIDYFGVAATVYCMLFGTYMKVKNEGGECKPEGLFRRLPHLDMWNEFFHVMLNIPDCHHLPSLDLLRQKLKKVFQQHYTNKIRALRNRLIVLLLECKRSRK
- experimentalProtocol: Bub1 TR-FRET high ATP kinase assay
- Type: biochemical
- condition: Bub1 high ATP (2 mM) IC50 [mol/l], 2 mM ATP
endpointName: IC50 (µM)

Some entries whose results are on file:
1. CCc1c(F)cccc1Nc1c(-c2ccncc2OCC2COCCO2)[nH]c2c1C(=O)NCC2 (single isomer, unassigned) [Example 66] | 5.04
2. COc1c(Cl)cccc1Nc1c(-c2ccncc2OCCC2COCCO2)[nH]c2c1C(=O)NCC2 (single isomer, unassigned) [Example 26] | 1.08
3. COc1c(F)cccc1Nc1c(-c2ccncc2OCC2COCCO2)[nH]c2c1C(=O)NCC2 (single isomer, unassigned) [Example 5] | 12.9
4. Cc1c(Cl)cccc1Nc1c(-c2ccncc2OCC2COCCO2)[nH]c2c1C(=O)NCC2 (centres unmarked) [Example 10] | 1.78
5. COc1c(F)cccc1Nc1c(-c2ccncc2OC[C@@H]2COCCN2C)[nH]c2c1C(=O)NCC2 [Example 20] | 9.53

P: COc1c(Cl)cccc1Nc1c(-c2ccncc2O[C@H](C)C2COCCO2)[nH]c2c1C(=O)NCC2 (single isomer, unassigned) [Example 60]
Q: CCc1c(F)cccc1Nc1c(-c2ccncc2OCC2COCCO2)[nH]c2c1C(=O)NCC2 (centres unmarked) [Example 65]
Between P and Q , which one shows the larger IC50 value? Pick one; state its label. P
(P: 16.4 µM, Q: 3.58 µM)

---

- studyTarget: EGFR with insertion of SVD between D770 and N771 (EGFR ins SVD) (Homo sapiens, UniProt P00533, DUP768-770)
- Construct: made in house; host or cells: Sf9 insect cells (baculovirus)
- Sequence (P00533 with tags, fused parts or gaps DUP768-770): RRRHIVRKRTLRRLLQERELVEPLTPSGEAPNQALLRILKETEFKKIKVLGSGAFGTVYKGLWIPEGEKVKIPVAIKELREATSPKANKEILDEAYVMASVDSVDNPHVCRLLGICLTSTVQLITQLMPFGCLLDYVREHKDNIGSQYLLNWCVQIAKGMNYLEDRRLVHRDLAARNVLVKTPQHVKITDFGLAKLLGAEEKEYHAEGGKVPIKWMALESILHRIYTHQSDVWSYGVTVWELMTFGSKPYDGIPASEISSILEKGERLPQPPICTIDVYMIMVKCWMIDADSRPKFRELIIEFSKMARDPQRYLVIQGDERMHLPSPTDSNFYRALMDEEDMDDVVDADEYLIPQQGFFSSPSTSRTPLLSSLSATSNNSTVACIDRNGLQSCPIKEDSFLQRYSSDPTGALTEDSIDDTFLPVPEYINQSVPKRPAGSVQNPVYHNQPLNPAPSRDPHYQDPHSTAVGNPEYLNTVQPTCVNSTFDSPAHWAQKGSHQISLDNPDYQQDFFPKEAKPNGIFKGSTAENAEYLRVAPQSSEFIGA
- experimentalProtocol: Exon20-Mutant-EGFR(D770_N771insSVD) kinase assay (TR-FRET)
- Assay type: biochemical
- condition: 2 mM ATP, several values per example where printed
endpointName: mutEGFR (D770_N771insSVD) kinase assay IC50 (nM)

Some entries whose results are on file:
1) COc1c(F)cccc1Nc1c(-c2ccncc2OCC2COC(C)(C)CO2)[nH]c2c1C(=O)NCC2 (single isomer, unassigned) [Example 34] | 0.193
2) COc1c(Cl)cccc1Nc1c(-c2ccncc2OC[C@H]2COCCN2C)[nH]c2c1C(=O)NCC2 [Example 11] | 0.286
3) COc1c(Cl)cccc1Nc1c(-c2ccncc2OCC2CN(C)CCO2)[nH]c2c1C(=O)NCC2 (centres unmarked) [Example 15] | 0.151
4) COc1c(Cl)cccc1Nc1c(-c2ccncc2OC(C)C2CN(C)CCO2)[nH]c2c1C(=O)NCC2 (single isomer, unassigned) [Example 72] | 1.41
5) CCc1c(Cl)cccc1Nc1c(-c2ccncc2OC[C@H]2COCCO2)[nH]c2c1C(=O)NCC2 (single isomer, unassigned) [Example 54] | 0.571
6) Cc1c(Cl)cccc1Nc1c(-c2ccncc2OC[C@H]2COCCO2)[nH]c2c1C(=O)NCC2 (single isomer, unassigned) [Example 51] | 0.136

1: COc1c(F)cccc1Nc1c(-c2ccncc2OCC2COCCO2)[nH]c2c1C(=O)NCC2 (single isomer, unassigned) [Example 6]
2: Cc1c(Cl)cccc1Nc1c(-c2ccncc2OCC2COC(C)(C)CO2)[nH]c2c1C(=O)NCC2 (single isomer, unassigned) [Example 45]
Select one. Lower mutEGFR (D770_N771insSVD) kinase assay IC50: 1 or 2 Pick one; state its label. 1

1: COc1c(F)cccc1Nc1c(-c2ccncc2OC[C@H]2COCCN2C)[nH]c2c1C(=O)NCC2 [Example 37]
2: COc1c(Cl)cccc1Nc1c(-c2ccncc2OCC2COC(C)(C)CO2)[nH]c2c1C(=O)NCC2 (single isomer, unassigned) [Example 31]
Between 1 and 2 , which one shows the larger mutEGFR (D770_N771insSVD) kinase assay IC50 value? Pick one; state its label. 1

a: COc1c(Cl)cccc1Nc1c(-c2ccncc2OC(C)C2CN(C)CCO2)[nH]c2c1C(=O)NCC2 (centres unmarked) [Example 71]
b: COc1c(Cl)cccc1Nc1c(-c2ccncc2OCC2CN(C)CCO2)[nH]c2c1C(=O)NCC2 (single isomer, unassigned) [Example 17]
Select one. Lower mutEGFR (D770_N771insSVD) kinase assay IC50: a or b Pick one; state its label. b

P: CCc1c(F)cccc1Nc1c(-c2ccncc2OCC2COCCO2)[nH]c2c1C(=O)NCC2 (centres unmarked) [Example 65]
Q: Cc1c(F)cccc1Nc1c(-c2ccncc2OCC2COC(C)(C)CO2)[nH]c2c1C(=O)NCC2 (single isomer, unassigned) [Example 39]
Select one. Lower mutEGFR (D770_N771insSVD) kinase assay IC50: P or Q Pick one; state its label. P
(P: 0.136 nM, Q: 0.304 nM)

---

- studyTarget: Ba/F3-EGFR-insSVD cells (Homo sapiens, UniProt P00533, DUP768-770, cells depend on it)
- Sequence (P00533 with tags, fused parts or gaps DUP768-770): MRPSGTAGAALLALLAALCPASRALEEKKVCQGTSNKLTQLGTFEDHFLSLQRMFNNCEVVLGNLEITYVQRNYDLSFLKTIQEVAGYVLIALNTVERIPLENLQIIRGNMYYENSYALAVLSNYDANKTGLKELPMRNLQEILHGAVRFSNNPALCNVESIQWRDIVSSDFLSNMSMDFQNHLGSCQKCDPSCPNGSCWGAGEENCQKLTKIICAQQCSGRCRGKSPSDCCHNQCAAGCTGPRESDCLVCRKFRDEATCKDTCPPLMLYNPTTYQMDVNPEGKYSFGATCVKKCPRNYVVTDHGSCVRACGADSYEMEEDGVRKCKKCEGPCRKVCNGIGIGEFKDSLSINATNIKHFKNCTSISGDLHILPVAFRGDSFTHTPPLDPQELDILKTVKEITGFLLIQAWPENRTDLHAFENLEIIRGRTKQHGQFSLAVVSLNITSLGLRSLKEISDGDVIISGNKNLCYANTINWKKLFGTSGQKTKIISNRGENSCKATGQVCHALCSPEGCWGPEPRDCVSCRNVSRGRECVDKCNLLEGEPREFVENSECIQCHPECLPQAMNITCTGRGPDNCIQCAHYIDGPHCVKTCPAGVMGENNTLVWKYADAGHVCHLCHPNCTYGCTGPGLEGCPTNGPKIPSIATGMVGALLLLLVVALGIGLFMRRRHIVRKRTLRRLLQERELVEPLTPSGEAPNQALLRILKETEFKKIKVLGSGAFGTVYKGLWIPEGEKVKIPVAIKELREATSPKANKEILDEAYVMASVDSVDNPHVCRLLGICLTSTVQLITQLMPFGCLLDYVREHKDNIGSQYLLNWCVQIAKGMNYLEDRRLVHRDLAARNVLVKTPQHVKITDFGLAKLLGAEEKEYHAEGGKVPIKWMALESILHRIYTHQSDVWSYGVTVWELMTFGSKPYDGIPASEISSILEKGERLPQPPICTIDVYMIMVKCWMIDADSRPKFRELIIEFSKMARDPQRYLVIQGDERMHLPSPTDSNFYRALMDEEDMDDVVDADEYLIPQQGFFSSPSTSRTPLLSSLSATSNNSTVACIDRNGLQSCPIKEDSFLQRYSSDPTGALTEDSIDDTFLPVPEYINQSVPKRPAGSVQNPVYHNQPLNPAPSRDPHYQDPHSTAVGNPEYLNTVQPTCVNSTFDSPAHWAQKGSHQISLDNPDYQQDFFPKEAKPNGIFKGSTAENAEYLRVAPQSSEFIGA
- experimentalProtocol: Ba/F3 cell survival assay (Cell Titer-Glo), EGFR-insSVD
- Format: cell-based
- condition: without IL-3, with 10 ng/mL EGF, 48 h; read-out: BA/F3 (insSVD) IC50
- Method: 293T cells from ATCC were transfected with pBABEpuro expression constructs for WT EGFR or EGFR-insSVD and pCL-Eco packaging vector using Fugene-6 transfection reagent from Promega. Plates were incubated at 37° C. for 48 h. […] Cell viability was measured by adding 20 μL of Cell Titer-Glo Luminescent Cell Viability Reagent diluted 1:3 in PBS. […] Plates were incubated in low light conditions for 8-10 min and luminescence was measured.
The following molecules are listed with their measured GI50 values.
Field: numeric (nM). Do not append units.

Some entries whose results are on file:
1) COc1c(F)cccc1Nc1c(-c2ccncc2OC[C@@H]2CN(CC(F)(F)F)CCO2)[nH]c2c1C(=O)NCC2 | 71
2) O=C1NCCc2[nH]c(-c3ccncc3OCC3COCCO3)c(Nc3cccc(F)c3CC(F)F)c21 (stereo not shown) | 119
3) COc1c(Cl)cccc1Nc1c(-c2ccncc2O[C@H](C)C2COCCO2)[nH]c2c1C(=O)NCC2 (single isomer, unassigned) [Example 61] | 300

Alright, here's another molecule for you.
State its GI50 for this molecule: CCc1c(F)cccc1Nc1c(-c2ccncc2OCC2COC(C)(C)CO2)[nH]c2c1C(=O)NCC2 (stereo not shown) [Example 68] 37.3

---

- studyTarget: Ba/F3-EGFR-L858R C797S cells (Homo sapiens, UniProt P00533, C797S/L858R, cells depend on it)
- Sequence (P00533 whole entry C797S/L858R): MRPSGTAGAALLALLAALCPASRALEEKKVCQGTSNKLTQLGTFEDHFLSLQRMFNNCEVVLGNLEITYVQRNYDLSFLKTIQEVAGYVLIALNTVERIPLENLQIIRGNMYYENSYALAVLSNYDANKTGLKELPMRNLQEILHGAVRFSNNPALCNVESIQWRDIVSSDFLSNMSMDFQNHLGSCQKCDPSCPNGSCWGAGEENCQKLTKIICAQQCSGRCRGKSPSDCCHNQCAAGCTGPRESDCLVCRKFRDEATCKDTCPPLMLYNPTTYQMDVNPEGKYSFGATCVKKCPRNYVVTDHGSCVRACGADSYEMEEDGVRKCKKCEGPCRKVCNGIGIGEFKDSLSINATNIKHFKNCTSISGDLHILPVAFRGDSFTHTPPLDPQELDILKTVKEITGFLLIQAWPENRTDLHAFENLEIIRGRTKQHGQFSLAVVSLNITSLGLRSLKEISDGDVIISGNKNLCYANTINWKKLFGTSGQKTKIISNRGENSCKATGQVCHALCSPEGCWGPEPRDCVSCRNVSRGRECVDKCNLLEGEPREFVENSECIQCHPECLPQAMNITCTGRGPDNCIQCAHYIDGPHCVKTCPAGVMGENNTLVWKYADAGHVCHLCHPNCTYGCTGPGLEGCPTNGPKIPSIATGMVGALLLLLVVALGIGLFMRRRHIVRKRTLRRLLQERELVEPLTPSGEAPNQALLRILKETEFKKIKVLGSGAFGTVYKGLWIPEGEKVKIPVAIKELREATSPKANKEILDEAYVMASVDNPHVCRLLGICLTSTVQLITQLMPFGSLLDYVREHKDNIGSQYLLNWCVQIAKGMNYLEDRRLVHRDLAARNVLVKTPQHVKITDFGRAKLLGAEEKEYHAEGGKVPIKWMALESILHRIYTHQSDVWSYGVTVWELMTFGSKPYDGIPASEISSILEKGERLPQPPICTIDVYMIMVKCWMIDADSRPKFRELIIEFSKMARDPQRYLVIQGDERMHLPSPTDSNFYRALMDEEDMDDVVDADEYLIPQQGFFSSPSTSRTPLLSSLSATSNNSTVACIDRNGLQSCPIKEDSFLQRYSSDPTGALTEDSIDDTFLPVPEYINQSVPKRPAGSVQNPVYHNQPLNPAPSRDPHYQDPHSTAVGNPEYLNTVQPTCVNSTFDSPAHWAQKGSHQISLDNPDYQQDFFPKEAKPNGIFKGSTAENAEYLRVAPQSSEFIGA
- experimentalProtocol: Ba/F3 cell survival assay, EGFR L858R C797S
- Assay type: cell-based
- condition: without IL-3, without EGF, 48 h; read-out: BA/F3 (EGFR L858R C797S) IC50
The following compounds are listed with their measured GI50 values.
Field: numeric (nM). Do not append units.

Some entries whose results are on file:
1. Cc1c(Cl)cccc1Nc1c(-c2ccncc2OC[C@H]2COCCO2)[nH]c2c1C(=O)NCC2 (single isomer, unassigned) | 1.6
2. COc1c(Cl)cccc1Nc1c(-c2ccncc2OCC2COC(C)(C)CO2)[nH]c2c1C(=O)NCC2 (single isomer, unassigned) | 1.12

State its GI50 for this compound: COc1c(Cl)cccc1Nc1c(-c2ccncc2OC[C@@H]2COCCN2C)[nH]c2c1C(=O)NCC2 0.444

---

- studyTarget: Ba/F3-EGFR-E746_A750del cells (Homo sapiens, UniProt P00533, DEL746-750, cells depend on it)
- Sequence (P00533 with tags, fused parts or gaps DEL746-750): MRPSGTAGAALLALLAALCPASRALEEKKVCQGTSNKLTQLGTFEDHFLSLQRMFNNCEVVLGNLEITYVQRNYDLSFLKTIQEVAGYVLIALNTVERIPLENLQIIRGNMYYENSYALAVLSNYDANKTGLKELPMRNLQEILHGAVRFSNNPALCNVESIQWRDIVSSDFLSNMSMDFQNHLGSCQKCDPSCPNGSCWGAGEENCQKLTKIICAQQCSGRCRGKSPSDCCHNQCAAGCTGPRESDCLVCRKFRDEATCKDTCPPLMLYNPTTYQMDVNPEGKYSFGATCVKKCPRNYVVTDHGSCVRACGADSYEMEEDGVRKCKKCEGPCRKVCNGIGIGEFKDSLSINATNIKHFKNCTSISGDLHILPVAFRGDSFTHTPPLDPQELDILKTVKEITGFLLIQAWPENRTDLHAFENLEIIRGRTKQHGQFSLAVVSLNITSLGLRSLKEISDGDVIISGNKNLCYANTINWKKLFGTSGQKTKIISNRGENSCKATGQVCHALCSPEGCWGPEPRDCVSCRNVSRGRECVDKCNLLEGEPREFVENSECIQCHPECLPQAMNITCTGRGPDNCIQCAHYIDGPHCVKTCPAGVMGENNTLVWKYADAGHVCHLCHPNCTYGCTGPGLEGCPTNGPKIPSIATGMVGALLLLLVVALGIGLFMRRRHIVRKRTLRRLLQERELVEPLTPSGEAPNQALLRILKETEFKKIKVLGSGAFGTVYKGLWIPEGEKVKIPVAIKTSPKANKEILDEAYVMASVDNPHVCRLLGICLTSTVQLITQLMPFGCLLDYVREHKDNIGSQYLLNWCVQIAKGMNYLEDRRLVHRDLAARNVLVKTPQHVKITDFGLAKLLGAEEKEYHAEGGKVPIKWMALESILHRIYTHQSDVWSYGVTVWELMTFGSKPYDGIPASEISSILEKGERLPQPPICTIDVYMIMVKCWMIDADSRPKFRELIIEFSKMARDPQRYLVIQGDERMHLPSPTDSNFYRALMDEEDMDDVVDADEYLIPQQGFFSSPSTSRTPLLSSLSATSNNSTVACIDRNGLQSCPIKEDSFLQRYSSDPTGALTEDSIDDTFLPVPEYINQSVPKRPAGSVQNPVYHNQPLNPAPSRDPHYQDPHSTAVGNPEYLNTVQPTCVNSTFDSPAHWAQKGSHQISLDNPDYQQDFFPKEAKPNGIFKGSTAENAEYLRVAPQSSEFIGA
- experimentalProtocol: Ba/F3 cell survival assay, EGFR E746_A750del
- Assay type: cell-based
- condition: without IL-3, without EGF, 48 h; read-out: BA/F3 (EGFR E746_A750del) IC50
endpointName: GI50 (nM)
Field: numeric (nM). Do not append units.

1. COc1c(F)cccc1Nc1c(-c2ccncc2OCC2COCCO2)[nH]c2c1C(=O)NCC2 (single isomer, unassigned) | 0.739
2. CCc1c(Cl)cccc1Nc1c(-c2ccncc2OC[C@@H]2CN(C)CCO2)[nH]c2c1C(=O)NCC2 | 0.892

State its GI50 for this compound: Cc1c(F)cccc1Nc1c(-c2ccncc2OCC2COCCO2)[nH]c2c1C(=O)NCC2 (single isomer, unassigned) 1.43

State its GI50 for this compound: Cc1c(Cl)cccc1Nc1c(-c2ccncc2OC[C@@H]2CN(C)CCO2)[nH]c2c1C(=O)NCC2 0.486

State its GI50 for this compound: Cc1c(Cl)cccc1Nc1c(-c2ccncc2OCC2COC(C)(C)CO2)[nH]c2c1C(=O)NCC2 (single isomer, unassigned) 1.05

---

- studyTarget: Ba/F3-EGFR-insSVD cells (Homo sapiens, UniProt P00533, DUP768-770, cells depend on it)
- experimentalProtocol: Ba/F3 cell survival assay (Cell Titer-Glo), EGFR-insSVD
- Type: cell-based
- condition: without IL-3, with 10 ng/mL EGF, 48 h; read-out: BA/F3 (insSVD) IC50
endpointName: GI50 (nM)
Field: numeric (nM). Do not append units.

Some entries whose results are on file:
1. Cc1c(F)cccc1Nc1c(-c2ccncc2OCC2CN(C)CCO2)[nH]c2c1C(=O)NCC2 (single isomer, unassigned) [Example 63] | 147
2. COc1c(Cl)cccc1Nc1c(-c2ccncc2OCCC2COCCO2)[nH]c2c1C(=O)NCC2 (single isomer, unassigned) [Example 25] | 18.3
3. CN1CCO[C@H](COc2cnccc2-c2[nH]c3c(c2Nc2cccc(F)c2CC(F)F)C(=O)NCC3)C1 | 77.5

Alright, here's another compound for you.
State its GI50 for this compound: CCc1c(Cl)cccc1Nc1c(-c2ccncc2OCC2CN(C)CCO2)[nH]c2c1C(=O)NCC2 (stereo not shown) 33.6
